Taken from ChEMBL document CHEMBL5357082.

experiment: Metabolic stability in mouse liver microsomes assessed as compound remaining at 0.5 uM incubated for 10 mins in presence of NADPH by UV absorbance based assay; type: ADME, Microsome; conditions: read-out: Stability
PARAMETER MEASURED: remaining at 10 min, 0.5 µM

STRUCTURE SMILES STRING	PARAMETER MEASURED	MEASUREMENT
CCC[C@@H](CCO)Nc1nc(N)nc2cnn(Cc3ncc(C4CCN(C)CC4)cc3OC)c12	remaining at 10 min, 0.5 µM	76%
CCC[C@@H](CCO)Nc1nc(N)nc2cnn(Cc3ncc(C4CCC5(CC4)CN(C(C)C)C5)cc3OC)c12	remaining at 10 min, 0.5 µM	87%
CCCCNc1nc(N)nc2cnn(Cc3ccc(C4CCNCC4)cc3OC)c12	remaining at 10 min, 0.5 µM	54%
CCC[C@@H](CCO)Nc1nc(N)nc2cnn(Cc3ncc(C4CCN(CC#N)CC4)cc3OC)c12	remaining at 10 min, 0.5 µM	67%
CCC[C@@H](CCO)Nc1nc(N)nc2cnn(Cc3ncc(C4=CC5(CCN(C6CCOCC6)CC5)C4)cc3OC)c12	remaining at 10 min, 0.5 µM	86%
CCCCNc1nc(N)nc2cnn(Cc3ccc(CNC4CCC4)cc3OC)c12	remaining at 10 min, 0.5 µM	3%
CCC[C@@H](CCO)Nc1nc(N)nc2cnn(Cc3ncc(C4CCN(C(C)C)CC4)cc3OC)c12	remaining at 10 min, 0.5 µM	78%
CCC[C@@H](CCO)Nc1nc(N)nc2cnn(Cc3ncc(C4CCN(C5CCNCC5)CC4)cc3OC)c12	remaining at 10 min, 0.5 µM	100%
CCCCNc1nc(N)nc2c(C)nn(Cc3ncc(C4CCNCC4)cc3OC)c12	remaining at 10 min, 0.5 µM	71%
CCCCNc1nc(N)nc2c(C3CC3)nn(Cc3ncc(C4CCNCC4)cc3OC)c12	remaining at 10 min, 0.5 µM	30%
CCC[C@@H](CCO)Nc1nc(N)nc2cnn(Cc3ncc(C4CCN(C5CCN(C)CC5)CC4)cc3OC)c12	remaining at 10 min, 0.5 µM	85%
CCC[C@@H](CCO)Nc1nc(N)nc2cnn(Cc3ncc(C4CCNCC4)cc3OC)c12	remaining at 10 min, 0.5 µM	85%
CCC[C@@H](CCO)Nc1nc(N)nc2cnn(Cc3ncc(C4CCC5(CC4)CNC5)cc3OC)c12	remaining at 10 min, 0.5 µM	44%
CCCCNc1nc(N)nc2cnn(Cc3ccc(N4CCNCC4)cc3OC)c12	remaining at 10 min, 0.5 µM	5%
CCCCNc1nc(N)nc2c(CC)nn(Cc3ncc(C4CCNCC4)cc3OC)c12	remaining at 10 min, 0.5 µM	47%
CCCCNc1nc(N)nc2cnn(Cc3ccc(C4CCNCC4)cc3OC(F)F)c12	remaining at 10 min, 0.5 µM	17%
CCC[C@@H](CCO)Nc1nc(N)nc2cnn(Cc3ncc(C4CCC5(CC4)CN(C4CCOCC4)C5)cc3OC)c12	remaining at 10 min, 0.5 µM	50%
CCC[C@@H](CCO)Nc1nc(N)nc2cnn(Cc3ncc(C4=CC5(CCNCC5)C4)cc3OC)c12	remaining at 10 min, 0.5 µM	93%
CCC[C@@H](CCO)Nc1nc(N)nc2cnn(Cc3ncc(C4=CC5(CCN(C(C)C)CC5)C4)cc3OC)c12	remaining at 10 min, 0.5 µM	83%

###

experiment: AUClast in nontumor bearing Balb/C mouse at 0.5 mg/kg; format: ADME, organism-based; parameters: dose 0.5 mg/kg; conditions: in vivo
Reported AUC(0-t) values are given for each entry in this list.
PARAMETER MEASURED: AUC(0-t) (µM·h)

STRUCTURE SMILES STRING	UNIT INFO	MEASUREMENT
CCC[C@@H](CCO)Nc1nc(N)nc2cnn(Cc3ncc(C4CCN(C5CCOCC5)CC4)cc3OC)c12	µM·h	0.655
CCC[C@@H](CCO)Nc1nc(N)nc2cnn(Cc3ccc(CNC4CCOCC4)cc3OC)c12	µM·h	0.111

###

Measured remaining at 10 min, 0.5 µM accompanies every entry in the list below.
experiment: Metabolic stability in human liver microsomes assessed as compound remaining at 0.5 uM incubated for 10 mins in presence of NADPH by UV absorbance based assay; format: ADME, Microsome; details: read-out: Stability
PARAMETER MEASURED: remaining at 10 min, 0.5 µM

STRUCTURE SMILES STRING	MEASUREMENT
CCC[C@@H](CCO)Nc1nc(N)nc2cnn(Cc3ncc(C4=CC5(CCN(C(C)C)CC5)C4)cc3OC)c12	72%
CCC[C@@H](CCO)Nc1nc(N)nc2cnn(Cc3ncc(C4CCN(C5CCN(C)CC5)CC4)cc3OC)c12	99%
CCCCNc1nc(N)nc2cnn(Cc3ccc(C4CCNCC4)cc3OC(F)F)c12	100%

###

test: Metabolic stability in human liver microsomes assessed as compound remaining at 0.5 uM incubated for 10 mins in presence of NADPH by UV absorbance based assay; format: ADME, Microsome; conditions: read-out: Stability
PARAMETER MEASURED: remaining at 10 min, 0.5 µM (%)

STRUCTURE SMILES STRING	UNIT INFO	MEASUREMENT
CCCCNc1nc(N)nc2cnn(Cc3ccc(CNC4CCC4)cc3OC)c12	%	45
CCC[C@@H](CCO)Nc1nc(N)nc2cnn(Cc3ncc(C4CCC5(CC4)CNC5)cc3OC)c12	%	100
CCC[C@@H](CCO)Nc1nc(N)nc2cnn(Cc3ncc(C4CCN(CC#N)CC4)cc3OC)c12	%	65
CCCCNc1nc(N)nc2cnn(Cc3ccc(N4CCNCC4)cc3OC)c12	%	100
CCCCNc1nc(N)nc2c(CC)nn(Cc3ncc(C4CCNCC4)cc3OC)c12	%	74

###

Here's what we have: pIC50 numbers for Voltage-gated inwardly rectifying potassium channel KCNH2 (Homo sapiens).
pIC50: −log10 of the molar value.

STRUCTURE SMILES STRING	QUALIFIER SYMBOL	pIC50
CCC[C@@H](CCO)Nc1nc(N)nc2cnn(Cc3ncc(C4CCN(CCO)CC4)cc3OC)c12	<	4.30
CCC[C@@H](CCO)Nc1nc(N)nc2cnn(Cc3ncc(C4CC5(C4)CN(C4CCOCC4)C5)cc3OC)c12	<	4.30
CCC[C@@H](CCO)Nc1nc(N)nc2cnn(Cc3ncc(C4CCN(CC#N)CC4)cc3OC)c12	=	4.52
CCC[C@@H](CCO)Nc1nc(N)nc2cnn(Cc3ncc(C4CCN(C)CC4)cc3OC)c12	=	4.37
CCC[C@@H](CCO)Nc1nc(N)nc2cnn(Cc3ncc(C4CCC5(CC4)CN(C(C)C)C5)cc3OC)c12	=	4.89
CCC[C@@H](CCO)Nc1nc(N)nc2cnn(Cc3ncc(C4=CC5(CCNCC5)C4)cc3OC)c12	=	5.00
CCCCNc1nc(N)nc2cnn(Cc3ncc(C4CCNCC4)cc3OC)c12	=	4.72
CCC[C@@H](CCO)Nc1nc(N)nc2cnn(Cc3ncc(C4CC5(CNC5)C4)cc3OC)c12	<	4.30
CCC[C@@H](CCO)Nc1nc(N)nc2cnn(Cc3ncc(C4=CC5(CCN(C(C)C)CC5)C4)cc3OC)c12	=	4.21

###

target: Cytochrome P450 2C19 (Homo sapiens); test: Inhibition of CYP2C19 (unknown origin); format: ADME
Sequence (P33261 whole entry): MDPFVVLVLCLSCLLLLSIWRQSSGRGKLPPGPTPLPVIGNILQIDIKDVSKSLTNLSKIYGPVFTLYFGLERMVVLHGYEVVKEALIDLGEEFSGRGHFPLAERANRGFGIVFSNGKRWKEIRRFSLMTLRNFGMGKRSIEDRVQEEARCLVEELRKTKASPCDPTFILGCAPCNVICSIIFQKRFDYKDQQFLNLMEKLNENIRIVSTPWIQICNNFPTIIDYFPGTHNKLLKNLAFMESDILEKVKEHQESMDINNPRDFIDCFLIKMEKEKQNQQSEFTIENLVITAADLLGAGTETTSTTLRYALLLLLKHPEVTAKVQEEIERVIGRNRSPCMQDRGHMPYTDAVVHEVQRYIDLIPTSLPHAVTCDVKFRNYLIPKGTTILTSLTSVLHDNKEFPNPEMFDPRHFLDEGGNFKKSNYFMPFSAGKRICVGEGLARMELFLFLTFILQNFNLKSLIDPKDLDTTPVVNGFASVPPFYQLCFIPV
pIC50: −log10 of the molar value.

STRUCTURE SMILES STRING	SUBJECT OF TEST	pIC50
CCC[C@@H](CCO)Nc1nc(N)nc2cnn(Cc3ncc(C4=CC5(CCNCC5)C4)cc3OC)c12	Cytochrome P450 2C19 (Homo sapiens)	< 4.70
CCCCNc1nc(N)nc2cnn(Cc3ccc(N4CCNCC4)cc3OC)c12	Cytochrome P450 2C19 (Homo sapiens)	< 4.70
CCC[C@@H](CCO)Nc1nc(N)nc2cnn(Cc3ncc(C4CCN(C(C)C)CC4)cc3OC)c12	Cytochrome P450 2C19 (Homo sapiens)	< 4.70

###

The entries below are paired with their reported EC50.
biological target: Toll-like receptor 8 (Homo sapiens, UniProt Q9NR97); assay: Agonist activity at human TLR8
Sequence (Q9NR97 whole entry): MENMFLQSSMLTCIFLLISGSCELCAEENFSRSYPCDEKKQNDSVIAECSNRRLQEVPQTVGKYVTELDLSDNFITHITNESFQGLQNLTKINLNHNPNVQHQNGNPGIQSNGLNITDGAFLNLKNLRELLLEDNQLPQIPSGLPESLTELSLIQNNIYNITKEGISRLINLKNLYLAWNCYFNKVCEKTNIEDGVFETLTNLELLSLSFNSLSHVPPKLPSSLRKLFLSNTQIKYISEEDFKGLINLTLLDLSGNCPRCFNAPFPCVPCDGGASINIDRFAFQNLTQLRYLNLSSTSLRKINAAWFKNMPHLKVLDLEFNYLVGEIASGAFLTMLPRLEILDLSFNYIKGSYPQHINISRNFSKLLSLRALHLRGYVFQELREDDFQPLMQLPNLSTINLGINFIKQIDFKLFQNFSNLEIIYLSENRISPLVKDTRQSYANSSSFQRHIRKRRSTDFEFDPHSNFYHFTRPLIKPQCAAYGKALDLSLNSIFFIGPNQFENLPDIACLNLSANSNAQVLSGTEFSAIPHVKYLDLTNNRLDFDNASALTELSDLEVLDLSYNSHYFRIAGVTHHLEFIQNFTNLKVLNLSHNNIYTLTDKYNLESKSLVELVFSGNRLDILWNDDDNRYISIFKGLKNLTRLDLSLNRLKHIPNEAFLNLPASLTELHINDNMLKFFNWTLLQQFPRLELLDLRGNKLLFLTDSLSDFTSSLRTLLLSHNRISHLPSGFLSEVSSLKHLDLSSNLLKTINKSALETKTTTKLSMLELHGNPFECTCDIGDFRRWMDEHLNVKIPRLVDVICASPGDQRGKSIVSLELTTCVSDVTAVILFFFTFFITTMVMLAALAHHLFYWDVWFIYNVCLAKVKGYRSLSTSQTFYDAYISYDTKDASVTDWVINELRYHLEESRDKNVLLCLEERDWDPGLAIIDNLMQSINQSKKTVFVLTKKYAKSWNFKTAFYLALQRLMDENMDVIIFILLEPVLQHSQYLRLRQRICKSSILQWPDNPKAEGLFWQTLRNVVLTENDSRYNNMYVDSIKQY

STRUCTURE SMILES STRING	EC50
CCC[C@@H](CCO)Nc1nc(N)nc2cnn(Cc3ccc(CNC4CCOCC4)cc3OC)c12	> 5 µM
CCC[C@@H](CCO)Nc1nc(N)nc2cnn(Cc3ncc(C4CCN(C5CCOCC5)CC4)cc3OC)c12	> 5 µM

###

biological target: Cytochrome P450 2C19 (Homo sapiens)
In this section we review reported IC50 values for a set of compounds.
PARAMETER MEASURED: IC50

STRUCTURE SMILES STRING	PARAMETER MEASURED	MEASUREMENT
CCC[C@H](CCO)Nc1nc(N)nc2cnn(Cc3ncc(C4CCN(C5CCOCC5)CC4)cc3OC)c12	IC50	> 20 µM
CCC[C@@H](CCO)Nc1nc(N)nc2cnn(Cc3ncc(C4CCNCC4)cc3OC)c12	IC50	> 20 µM
CCC[C@@H](CCO)Nc1nc(N)nc2cnn(Cc3ncc(C4=CC5(CCN(C(C)C)CC5)C4)cc3OC)c12	IC50	> 20 µM
CCCCNc1nc(N)nc2cnn(Cc3ncc(C4CCNCC4)cc3OC)c12	IC50	> 20 µM
CCCCNc1nc(N)nc2cnn(Cc3ccc(CNC4CCC4)cc3OC)c12	IC50	> 20 µM
CCC[C@@H](CCO)Nc1nc(N)nc2cnn(Cc3ncc(C4CCN(C5CCN(C)CC5)CC4)cc3OC)c12	IC50	> 20 µM
CCCCNc1nc(N)nc2cnn(Cc3ccc(C4CCNCC4)cc3OC)c12	IC50	9.42 µM
CCC[C@@H](CCO)Nc1nc(N)nc2cnn(Cc3ncc(C4CCN(C5CCOCC5)CC4)cc3OC)c12	IC50	> 20 µM
CCC[C@@H](CCO)Nc1nc(N)nc2cnn(Cc3ncc(C4CCN(C)CC4)cc3OC)c12	IC50	> 20 µM
